experiment: Cellular toxicity in uninfected CEM cells (TC50)
Type: cell-based
recordedConditions: human, inhibits 50% of the viability of uninfected cells
Structures can show the parent of a compound that is named as a salt.
Lab note - cut at 70 µM for CC50: rule met if strictly below, rule not met if not.

[[record]]
compound = "Cc1ccc(C(C)(C)C)c(SC2=C(O)CC(CCc3ccccc3)(CCc3ccccc3)OC2=O)c1 [Ref A, reference compound]"
class = "rule met"

[[record]]
compound = "Cc1cc(SC2=C(O)CC(CCc3ccc(O)cc3)(C3CCCCC3)OC2=O)c(C(C)(C)C)cc1CO (centres unmarked) [Example 9]"
class = "rule not met"

[[record]]
compound = "CCCCC1(CCc2ccc(O)cc2)CC(O)=C(Sc2cc(C)c(CO)cc2C(C)(C)C)C(=O)O1 (racemic) [Example 7]"
class = "rule met"

[[record]]
compound = "Cc1cc(SC2=C(O)CC(CCc3ccc(O)cc3)(C3CCCC3)OC2=O)c(C(C)(C)C)cc1CO (centres unmarked) [Example 62]"
class = "rule not met"

[[record]]
compound = "Cc1cc(SC2=C(O)CC(C)(CCc3ccc(O)cc3)OC2=O)c(C(C)(C)C)cc1N (centres unmarked) [Example 11, monohydrochloride]"
class = "rule not met"

[[record]]
compound = "Cc1cc(SC2=C(O)CC(C)(CCc3ccc(O)cc3)OC2=O)c(C(C)(C)C)cc1NS(=O)(=O)c1ccc(F)cc1 (centres unmarked) [Example 71]"
class = "rule not met"

[[record]]
compound = "CCNS(=O)(=O)Oc1cc(C(C)(C)C)c(SC2=C(O)CC(CCc3ccc(N)cc3)(CCc3ccc(N)cc3)OC2=O)cc1C [Example 29]"
class = "rule met"

[[record]]
compound = "Cc1cc(SC2=C(O)CC(CCc3cccc(O)c3)(C3CCCC3)OC2=O)c(C(C)(C)C)cc1CO (centres unmarked) [Example 39]"
class = "rule not met"


Incoming: # TODO verify CC50 < 70 µM strictly for this compound: Cc1cc(SC2=C(O)CC(CCc3ccc4c(c3)OCO4)(C(C)C)OC2=O)c(C(C)(C)C)cc1CO (centres unmarked) [Example 61]
Outgoing: rule not met

Incoming: Entry Cc1ccc(C(C)(C)C)c(SC2=C(O)CC(CCc3ccccc3)(c3ccccc3)OC2=O)c1 (racemic) [Ref B, reference compound] please
Outgoing: rule met

Incoming: Entry Cc1cc(SC2=C(O)CC(CCc3ccc(O)cc3)(C(C)C)OC2=O)c(C(C)(C)C)cc1NC(=O)c1ccccc1 (centres unmarked) [Example 58] please
Outgoing: rule met

###

Tested on: HIV in lymphocyte derived CEM cells
experiment: Cellular Infection Assay, antiviral efficacy in HIV infected CEM cells (XTT cytopathic procedure)
Format: cell-based
recordedConditions: Human immunodeficiency virus 1, CCRF-CEM; CEM cells; reduces HIV cytopathic effects 50% relative to untreated control; read-out: Antiviral Efficacy EC50
measurementKind: pEC50
Notebook: values listed as pEC50 are -log10 of the concentration (mol/L).

Known pEC50 results, listed for orientation:
[[record]]
compound = "Cc1cc(SC2=C(O)CC(C)(CCc3ccc(O)cc3)OC2=O)c(C(C)(C)C)cc1NC(=O)c1ccc(C#N)cc1 (stereo not shown)"
endpointvalue = 4.80

[[record]]
compound = "Cc1cc(SC2=C(O)CC(CCc3ccc(O)cc3)(CCc3ccc(O)cc3)OC2=O)c(C(C)(C)C)cc1CO"
endpointvalue = 5.20


Incoming: Request the reported pEC50 associated with Cc1cc(SC2=C(O)CC(C)(CCc3ccc(O)cc3)OC2=O)c(C(C)(C)C)cc1OS(=O)(=O)N(C)C (racemic)
Outgoing: 5.60

Incoming: Entry Cc1cc(SC2=C(O)CC(CCc3ccc(O)cc3)(C(C)C)OC2=O)c(C(C)(C)C)cc1OS(=O)(=O)N1CCN(C)CC1 (stereo not shown) please
Outgoing: 6.30

Incoming: Entry `CCNS(=O)(=O)Oc1cc(C(C)(C)C)c(SC2=C(O)CC(CCc3ccc(N)cc3)(CCc3ccc(N)cc3)OC2=O)cc1C` please
Outgoing: 5.92

Incoming: Entry `Cc1cc(SC2=C(O)CC(CCc3cccc(O)c3)(CCc3cccc(O)c3)OC2=O)c(C(C)(C)C)cc1CO` please
Outgoing: 5.32

###

assaySystem: HIV-1 protease (Human immunodeficiency virus type 1 group M subtype B, UniProt P04585)
Construct: Recombinant HIV-1 protease (>96% purity); purchased Bachem Bioscience Inc. (King of Prussia, PA)
experiment: biochemical
recordedConditions: 6.0 nM HIV-1 protease, 40 μM substrate III, 37° C., 5 minutes; read-out: Inhib of HIV-Protease IC50
Structures can show the parent of a compound that is named as a salt.
measurementKind: IC50 (nM)
Dear colleague, please return just the value in nM, with no unit written.

Known IC50 results, listed for orientation:
[[record]]
molecule = "CCNS(=O)(=O)Oc1cc(C(C)(C)C)c(SC2=C(O)CC(CCc3ccc(N)cc3)(CCc3ccc(N)cc3)OC2=O)cc1C"
endpointvalue = 1.8

[[record]]
molecule = "Cc1cc(SC2=C(O)CC(C)(CCc3ccc(O)cc3)OC2=O)c(C(C)(C)C)cc1NS(=O)(=O)c1ccc(C#N)cc1 (stereo not shown)"
endpointvalue = 2.1


Incoming: # query: IC50 | item Cc1cc(SC2=C(O)CC(C)(CCc3ccc(O)cc3)OC2=O)c(C(C)(C)C)cc1N (stereo not shown) [Example 11, monohydrochloride] | system: HIV-1 protease (Human immunodeficiency virus type 1 group M subtype B, UniProt P04585)
Outgoing: 13

Incoming: Entry `Cc1cc(SC2=C(O)CC(CCc3ccc(O)cc3)(CCc3ccc(O)cc3)OC2=O)c(C(C)(C)C)cc1N` please
Outgoing: 2.9

###

assaySystem: HIV-1 protease (Human immunodeficiency virus type 1 group M subtype B)
Construct: Recombinant HIV-1 protease (>96% purity); purchased Bachem Bioscience Inc. (King of Prussia, PA)
experiment: biochemical
recordedConditions: 6.0 nM HIV-1 protease, 40 μM substrate III, 37° C., 5 minutes; read-out: Inhib of HIV-Protease IC50
# pIC50 listing for each entry below
Notebook: values listed as pIC50 are -log10 of the concentration (mol/L).

Known pIC50 results, listed for orientation:
[[record]]
compound = "CCNS(=O)(=O)Oc1cc(C(C)(C)C)c(SC2=C(O)CC(CCc3ccc(O)c(OC)c3)(c3ccc(OCCO)cc3)OC2=O)cc1C (centres unmarked) [Example 48]"
endpointvalue = 8.62

[[record]]
compound = "Cc1cc(SC2=C(O)CC(CCc3ccc(O)cc3)(C3CCC3)OC2=O)c(C(C)(C)C)cc1CO (centres unmarked) [Example 98]"
endpointvalue = 8.66

[[record]]
compound = "Cc1cc(SC2=C(O)CC(CCc3ccc(N)cc3)(CCc3ccc(N)cc3)OC2=O)c(C(C)(C)C)cc1CO [Example 16]"
endpointvalue = 8.80

[[record]]
compound = "Cc1cc(SC2=C(O)CC(CCc3cccc(O)c3)(CCc3cccc(O)c3)OC2=O)c(C(C)(C)C)cc1CO [Example 21]"
endpointvalue = 8.68

[[record]]
compound = "Cc1ccc(C(C)(C)C)c(SC2=C(O)CC(CCc3ccccc3)(CCC(C)C)OC2=O)c1 (centres unmarked) [Ref C, reference compound]"
endpointvalue = 7.15


Incoming: Request the reported pIC50 associated with Cc1cc(SC2=C(O)CC(C)(CCc3ccc(O)cc3)OC2=O)c(C(C)(C)C)cc1OS(=O)(=O)N1CCN(C)CC1 (centres unmarked) [Example 31]
Outgoing: 8.15

Incoming: Entry Cc1cc(SC2=C(O)CC(CCc3ccc(O)cc3)(CCc3ccc(O)cc3)OC2=O)c(C(C)(C)C)cc1OS(=O)(=O)N1CCN(C)CC1 [Example 30] please
Outgoing: 8.26

Incoming: Entry Cc1cc(SC2=C(O)CC(C)(CCc3ccc(O)cc3)OC2=O)c(C(C)(C)C)cc1NC(=O)c1ccc(C#N)cc1 (centres unmarked) [Example 68] please
Outgoing: 7.25

Incoming: Entry Cc1cc(SC2=C(O)CC(CCc3ccc(O)cc3)(C(C)C)OC2=O)c(C(C)(C)C)cc1NC(=O)c1ccccc1 (centres unmarked) [Example 58] please
Outgoing: 7.68

###

System: HIV in lymphocyte derived CEM cells
experiment: Cellular Infection Assay, antiviral efficacy in HIV infected CEM cells (XTT cytopathic procedure)
Type: cell-based
recordedConditions: Human immunodeficiency virus 1, CCRF-CEM; CEM cells; reduces HIV cytopathic effects 50% relative to untreated control; read-out: Antiviral Efficacy EC50
pEC50: −log10 of the molar value.
Answer Not fulfilled if pEC50 is under 6, and Fulfilled if it is 6 or more.

[[record]]
compound = "Cc1cc(SC2=C(O)CC(C)(CCc3ccc(O)cc3)OC2=O)c(C(C)(C)C)cc1OS(N)(=O)=O (stereo not shown)"
assaysystem = "HIV in lymphocyte derived CEM cells"
class = "Not fulfilled"

[[record]]
compound = "Cc1cc(SC2=C(O)CC(C)(CCc3ccc(O)cc3)OC2=O)c(C(C)(C)C)cc1OCCO (racemic)"
assaysystem = "HIV in lymphocyte derived CEM cells"
class = "Not fulfilled"

[[record]]
compound = "Cc1cc(SC2=C(O)CC(CCc3ccc(O)cc3)(CCc3ccc(O)cc3)OC2=O)c(C(C)(C)C)cc1OS(=O)(=O)N1CCN(C)CC1"
assaysystem = "HIV in lymphocyte derived CEM cells"
class = "Not fulfilled"


Incoming: Is reported pEC50 greater than or equal to 6 here: Cc1cc(SC2=C(O)CC(CCc3ccc(N)cc3C)(C3CCCCC3)OC2=O)c(C(C)(C)C)cc1CO (stereo not shown)
Outgoing: Fulfilled

Incoming: Entry Cc1cc(CCC2(C(C)C)CC(O)=C(Sc3cc(C)c(CO)cc3C(C)(C)C)C(=O)O2)ccc1O (stereo not shown) please
Outgoing: Fulfilled

Incoming: Entry Cc1cc(SC2=C(O)CC(CCc3ccc(O)cc3)(C(C)C)OC2=O)c(C(C)(C)C)cc1CO (racemic) please
Outgoing: Fulfilled

Incoming: Entry Cc1ccc(C(C)(C)C)c(SC2=C(O)CC(CCc3ccccc3)(c3ccc(OCCN4CCNCC4)cc3)OC2=O)c1 (stereo not shown) please
Outgoing: Not fulfilled

Incoming: Entry `Cc1cc(SC2=C(O)C[C@@](CCc3cccc(O)c3)(C3CCCC3)OC2=O)c(C(C)(C)C)cc1CO` please
Outgoing: Fulfilled

Incoming: Entry Cc1cc(SC2=C(O)CC(C)(CCc3ccc(O)cc3)OC2=O)c(C(C)(C)C)cc1OS(=O)(=O)NC(C)(C)C (racemic) please
Outgoing: Not fulfilled
